target.under.test: Protein deacetylase HDAC6 (Homo sapiens, UniProt Q9UBN7)
Sequence (Q9UBN7 whole entry): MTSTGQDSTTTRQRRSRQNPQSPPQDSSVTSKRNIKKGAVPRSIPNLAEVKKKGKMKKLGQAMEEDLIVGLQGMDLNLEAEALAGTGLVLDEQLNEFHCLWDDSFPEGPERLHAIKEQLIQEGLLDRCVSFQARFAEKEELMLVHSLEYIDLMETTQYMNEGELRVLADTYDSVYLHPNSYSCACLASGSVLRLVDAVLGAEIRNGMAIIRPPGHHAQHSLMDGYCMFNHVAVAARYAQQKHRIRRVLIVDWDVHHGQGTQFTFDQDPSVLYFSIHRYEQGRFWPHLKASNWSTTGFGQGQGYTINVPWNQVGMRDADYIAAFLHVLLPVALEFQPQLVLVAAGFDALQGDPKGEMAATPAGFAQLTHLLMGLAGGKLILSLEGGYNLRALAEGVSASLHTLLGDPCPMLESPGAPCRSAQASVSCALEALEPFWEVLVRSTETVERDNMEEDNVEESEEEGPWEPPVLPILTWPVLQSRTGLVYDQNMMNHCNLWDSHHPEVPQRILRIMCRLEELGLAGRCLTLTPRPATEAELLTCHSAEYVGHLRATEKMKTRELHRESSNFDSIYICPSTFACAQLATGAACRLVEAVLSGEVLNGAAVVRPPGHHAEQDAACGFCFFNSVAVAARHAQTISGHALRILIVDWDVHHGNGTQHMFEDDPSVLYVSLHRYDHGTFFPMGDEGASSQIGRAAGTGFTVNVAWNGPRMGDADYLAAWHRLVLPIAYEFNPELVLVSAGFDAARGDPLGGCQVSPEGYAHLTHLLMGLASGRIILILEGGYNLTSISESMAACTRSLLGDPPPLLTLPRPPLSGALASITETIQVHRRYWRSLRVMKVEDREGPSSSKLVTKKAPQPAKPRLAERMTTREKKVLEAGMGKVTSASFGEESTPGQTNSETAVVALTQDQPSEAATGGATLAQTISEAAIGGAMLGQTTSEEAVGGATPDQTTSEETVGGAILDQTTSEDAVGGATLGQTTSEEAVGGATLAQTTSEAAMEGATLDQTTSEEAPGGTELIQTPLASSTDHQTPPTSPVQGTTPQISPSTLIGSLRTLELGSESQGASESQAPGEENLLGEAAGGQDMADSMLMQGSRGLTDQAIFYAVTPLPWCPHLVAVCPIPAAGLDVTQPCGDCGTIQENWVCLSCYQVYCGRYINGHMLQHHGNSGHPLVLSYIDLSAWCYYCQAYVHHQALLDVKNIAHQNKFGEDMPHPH
measurement.description: Inhibition of recombinant human HDAC6 by fluorimetry
For each record, check the reported IC50: if it is below 60 nM write T, else write F.

Consider the following illustrative entries.
test.smiles: CN(/N=C/c1cccc(C(=O)NO)c1)C(=O)c1ccc(N(C)C)cc1
label.value: F

test.smiles: CN(C)c1ccc(C(=O)N/N=C/c2cccc(C(=O)NO)c2)cc1
label.value: F

test.smiles: C/C(=N\NC(=O)c1ccc(N(C)C)cc1)c1ccc(C(=O)NO)cc1
label.value: T

Take the compound C/C(=N\N(C)C(=O)c1ccc(N(C)C)cc1)c1ccc(C(=O)NO)cc1 and say whether its IC50 is less than 60 nM. F

How about CN(/N=C/c1ccc(C(=O)NO)cc1)C(=O)c1ccc(N(C)C)cc1 ? T

How about CN(C)c1ccc(C(=O)N/N=C/c2ccc(C(=O)NO)cc2)cc1 ? T
